# assayOverview: Cytotoxicity against human HuH7 cells assessed as inhibition of cell viability after 3 days by CellTiter 96 assay
measurementType: log10 of CC50 at 72 h (log10 of the value in µM)
Heads up, the numbers here are log10 of CC50 at 72 h in µM units.

| compound | log10 of CC50 at 72 h |
| --- | --- |
| Nc1ccccc1NC(=O)c1ccc(CNC(=O)OCc2cccnc2)cc1 | 0.71 |

Items follow; give log10 of CC50 at 72 h for each.
1. O=C(/C=C/c1ccc([N+](=O)[O-])cc1)NO
2. O=C(NO)c1cc2cc(Cl)ccc2s1
3. O=C(/C=C/c1c(F)cc(C(F)(F)F)cc1F)NO
4. O=C(NO)c1cc2ccccc2o1
5. COc1ccc(Cn2ccc3ccc(C(=O)NO)cc32)cc1
6. O=C(/C=C/c1ccc(C(F)(F)F)cn1)NO

**A:**
[1.46, 1.43, 1.08, 1.73, 1.04, 1.11]

Items follow; give log10 of CC50 at 72 h for each.
1. O=C(NO)c1cc2ccccc2s1
2. O=C(/C=C/c1cccc(S(=O)(=O)Nc2ccccc2)c1)NO

**A:**
1: 1.45; 2: -0.17

Items follow; give log10 of CC50 at 72 h for each.
1. O=C(/C=C/c1ccccc1)NO
2. O=C(/C=C/c1ccc(C(F)(F)F)cc1F)NO
3. O=C(NO)c1sc2ccccc2c1S(=O)(=O)c1ccccc1
4. O=C(NO)c1cc2cc([N+](=O)[O-])ccc2s1
5. O=C(/C=C/c1ccc(C(F)(F)F)cc1)NO

**A:**
[1.59, 1.15, 1.76, 1.53, 1.40]

Items follow; give log10 of CC50 at 72 h for each.
1. O=C(NO)c1cc2ccc([N+](=O)[O-])cc2s1
2. O=C(/C=C/c1ccc(C(F)(F)F)cc1Cl)NO
3. Cc1[nH]c2ccccc2c1CCNCc1ccc(/C=C/C(=O)NO)cc1
4. C/C(=C\C(=O)NO)c1ccccc1
5. COc1cc(NC(=O)CCCCCCC(=O)NO)ccc1-c1cnco1
6. O=C(/C=C/c1ccc(Cl)cc1Cl)NO [CINNAMIC ACID HYDROXAMATE]
7. O=C(/C=C/c1ccc(C(F)(F)F)nc1)NO

**A:**
1: 1.73; 2: 1.18; 3: -2.46; 4: 1.77; 5: 0.41; 6: 0.91; 7: 1.28
